B1: Cold shock protein CspB, P41016 (parent)
chain: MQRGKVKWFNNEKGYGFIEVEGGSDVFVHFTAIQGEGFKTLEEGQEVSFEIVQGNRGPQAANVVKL

Variants of: B1
Details: Bacillus caldolyticus; pH 7; Thermal; CD; Sodium cacodylate-HCl 0.1 M; reversible: yes; structure 1C9O; whole UniProt chain shown
Please go through the items and note down their unfolding enthalpy (van 't Hoff).
Give bare numbers, in kcal/mol.

Example entries begin here.
R3E
45.6
Q53E
58.8
T31S
59.8
N11S
58.8
Q2L
57.8

# return unfolding enthalpy (van 't Hoff) for each item in the list
1. Y15F
2. V64T
3. S24D
4. E46A
5. G23Q
6. R3E L66E

Resp:
1. 56.6
2. 58.3
3. 61.7
4. 57.6
5. 59.5
6. 36.8

Source: FireProtDB (doi:10.1038/75151)
